Reference source for all entries: paper PMC8957230

- TEST PROTOCOL: Ketoconazole solubility by pH adjustment with HCl (pH-solubility profile)
- Format: physicochemical
- SETTINGS: suspension in distilled water, pH adjusted with HCl, pH 7.72, pH of suspension 7.72; 25 °C; pH lowered using HCl; read-out: Solubility
RECORDED ENDPOINT: solubility

// sample CC(=O)N1CCN(c2ccc(OCC3COC(Cn4ccnc4)(c4ccc(Cl)cc4Cl)O3)cc2)CC1 (stereo not shown) [ketoconazole] , its solubility was 2 µg/mL

###

- TEST PROTOCOL: Ketoconazole solubility by pH adjustment with HCl (pH-solubility profile)
- Type: physicochemical
- SETTINGS: suspension in distilled water, pH adjusted with HCl, 25 °C, pH 4.99, aqueous buffer, thermodynamic from solid, pH of suspension 4.99, pH lowered using HCl, read-out: Solubility
RECORDED ENDPOINT: solubility (µg/mL)
Please respond with the number in µg/mL and leave the unit unwritten.

// sample CC(=O)N1CCN(c2ccc(OCC3COC(Cn4ccnc4)(c4ccc(Cl)cc4Cl)O3)cc2)CC1 (stereo not shown) [ketoconazole] , its solubility was 175
